- assay_text: viability gain of MRP-1-high H69AR cells under doxorubicin, pilot screen, MRP-1 activator project, CellTiter-Glo, duplicate (AID 807);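 further: compound pretreatment 18-22 h then 72 h combined with doxorubicin; 0% = doxorubicin alone and 100% = vehicle without doxorubicin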
- applied_conditions: H69AR viability with doxorubicin, CellTiter-Glo luminescence; at 10 µM; active compounds read high
value_kind: viability increase (%)

{"columns": ["compound", "result_number"],
 "data": [
  ["CCNC(=O)CN(C1CCCCC1)S(=O)(=O)c1ccc(F)cc1", -2.01],
  ["COc1cccc(-c2nnc3n2N=C(C(C)(C)C)CS3)c1", -4.18],
  ["CCN(CC)C(=O)c1cn(C)c(=O)c2cc(OC)c(OC)cc12", -4.4],
  ["Fc1ccc(Br)cc1C1C=C(c2cccnc2)Nc2ncnn21 (stereo not given)", -4.62],
  ["CN1CCN(CCCNC(=O)c2cc3c(=O)n(C)c4ccccc4c3s2)CC1", -7.62],
  ["O=C(O)c1cccc(CN2C(=O)CSC2=O)c1", -0.3],
  ["CC(C)N1C(=O)CCC1C(=O)NCCc1ccc(Cl)cc1 (stereo not given)", 0.32],
  ["O=C(Cn1ncc2c(=O)oc3ccccc3c21)N1CCC(N2CCCCC2)CC1", -1.31],
  ["Nc1cc(-c2cccc(F)c2)nn1S(=O)(=O)c1cccc2nsnc12", -2.16],
  ["COC(=O)C1CCN(C(c2ccc(OC)c(OC)c2)c2sc3nc(C)nn3c2O)CC1 (stereo not given)", 0.34],
  ["COc1ccc(-c2cn3c(C)c(C(=O)NCc4ccc5c(c4)OCO5)sc3n2)cc1", -3.02],
  ["Cn1c(C(=O)N2CCN(Cc3ccc4c(c3)OCO4)CC2)cc2c(=O)n(C)c3ccccc3c21", -1.54],
  ["Cn1c(Cn2c(=O)sc3ccccc32)nnc1SCc1ccc(F)cc1", -4.85],
  ["CCOc1ccccc1-c1nc(C(N)=O)c2[nH]c(=O)n(-c3ccc(F)cc3)c2n1", -4.08],
  ["O=C1CC(c2ccccc2)CC(O)=C1C=NCCN1CCNCC1 (stereo not given)", 1.22],
  ["CCOC(=O)c1c(C)oc2cc(Br)c(O)c(Br)c12", -2.05],
  ["CC1CCCCN1CCNC(=O)c1cnn2ccccc12 (stereo not given)", -1.7],
  ["COC(=O)c1cc(=O)n(Cc2ccco2)c(=Nc2ccc(F)c(Cl)c2)s1", -8.24],
  ["COc1cccc(C(=O)Nc2ccc3nc(N4CCOCC4)cc(C)c3c2)c1", -6.58],
  ["CCOC(=O)c1cnc2c(C#N)c(C)nn2c1-c1ccccc1", -0.99],
  ["Cc1cc(C)cc(N(CC(=O)NCc2ccco2)S(=O)(=O)c2c(C)noc2C)c1", -4.19],
  ["COc1ccccc1-c1c(C#N)c(SCC(=O)N2CCCC2)nc(C)c1C(N)=O", -0.18],
  ["CCCOc1ccc(/C(O)=C2/C(=O)C(=O)N(CCN(C)C)C2c2ccco2)cc1 (stereo not given)", -4.27],
  ["O=C(Nc1ccccc1O)c1ccccc1O", -3.07],
  ["Cc1cccc(-n2c(Cc3cc(=O)[nH]c(=O)[nH]3)nnc2SCC(=O)NCC2CCCO2)c1 (stereo not given)", -2.52],
  ["CCCCN1C(=O)C(O)(CC(=O)c2ccccc2OC)c2ccccc21 (stereo not given)", -3.31],
  ["COc1ccc(Cl)cc1S(=O)(=O)N1CCN=C1C", -2.75],
  ["CC(=O)C1C(c2ccc(O)cc2)NC(=O)NC1(O)C(F)(F)F (stereo not given)", -1.41],
  ["CCn1c(CNC(=O)C(C)(C)C)nc2ccccc21", -1.1],
  ["O=C(c1c(F)cccc1F)N1CCN(c2cccc(C(F)(F)F)c2)CC1", 2.86],
  ["O=C(O)CCC(=O)N1CCc2cc(S(=O)(=O)N3CCN(c4ccc(F)cc4)CC3)ccc21", -1.31],
  ["COc1ccc(CCNc2oc(-c3ccc(C)cc3)nc2C#N)cc1OC", -0.33],
  ["CN1C(=O)c2cccc(NC(=O)C3CCCCC3)c2C1=O", -1.21],
  ["CCC(=O)NC(C)c1nc2ccccc2n1C (stereo not given)", -1.61],
  ["O=C1C2C3C=CC(C3)C2C(=O)N1c1ccccc1 (stereo not given)", 0.71],
  ["CC(=O)c1c(C(C)=O)c(C)n(-c2nc(-c3ccccc3)c(C)s2)c1C", -2.37],
  ["Cc1ccc(S(=O)(=O)CNC(=O)c2ccccc2)cc1", 1.64],
  ["Cn1c(C(=O)NCc2cccs2)cc2c(=O)n(C)c3ccccc3c21", -3.65],
  ["CCN(CCNC(=O)Cn1cc2c(n1)CCCC2)c1ccccc1", 0.42],
  ["COc1ccc(-c2nc(CS(=O)(=O)CC(=O)Nc3ccc(Cl)cc3)c(C)o2)cc1", -2.64],
  ["CCC(=O)Nc1cccc(-c2nnc(SCC(=O)c3ccccc3)n2C)c1", -1.76],
  ["COCCCNC(=O)c1cc2c(=O)n(C)c3ccccc3c2n1C", -7.13],
  ["CCOc1ccccc1C1N(c2ccc(OC)cc2)C(=O)C2CCCN21 (stereo not given)", -0.9],
  ["Cn1c(=O)c2c(nc(NCCc3ccccc3)n2Cc2ccc(F)cc2)n(C)c1=O", 1.3],
  ["COc1cc2c(cc1OC)C1=C(C#N)CN(CC(=O)O)CN1CC2", -4.43]
]}
